STUDY_SYSTEM: Nuclear receptor ROR-gamma (Mus musculus) (UniProt P51450)
Sequence (P51450 whole entry, looked up): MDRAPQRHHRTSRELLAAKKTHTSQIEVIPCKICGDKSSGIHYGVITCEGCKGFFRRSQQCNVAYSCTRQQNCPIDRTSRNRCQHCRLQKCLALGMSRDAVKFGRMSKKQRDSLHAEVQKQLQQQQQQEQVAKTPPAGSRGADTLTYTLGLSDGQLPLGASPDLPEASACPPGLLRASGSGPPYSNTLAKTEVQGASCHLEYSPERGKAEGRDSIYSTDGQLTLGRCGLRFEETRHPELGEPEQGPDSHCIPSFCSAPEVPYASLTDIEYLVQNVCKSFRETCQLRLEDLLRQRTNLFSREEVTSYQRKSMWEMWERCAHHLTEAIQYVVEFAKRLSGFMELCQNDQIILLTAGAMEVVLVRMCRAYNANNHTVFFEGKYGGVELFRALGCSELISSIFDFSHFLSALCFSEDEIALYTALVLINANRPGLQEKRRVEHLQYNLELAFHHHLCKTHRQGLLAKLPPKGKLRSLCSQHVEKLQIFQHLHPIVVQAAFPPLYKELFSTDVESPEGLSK
METHOD_DESCRIPTION: qHTS for inhibitors of ROR gamma transcriptional activity; also: nearly all actives have a fitted effect of over 60% in size
STUDY_CONDITIONS: Drosophila S2 Gal4-RORgamma UAS-luciferase reporter, 20 h; series mostly up to 53.6 µM
In all, about 310,000 compounds went through this assay and about 17,000 (5.5%) were called active. Roughly 11% stayed inconclusive and do not appear here. Calls follow the shape of the dose curve; as a rule, active = well fitted inhibition curve with a large enough effect; inconclusive = small, poorly fitted or top-dose-only effect, or effect the other way; inactive = no such curve, though single readings can be large or run the other way. Shown is part of a subset that was picked to be rich in actives.
Write down the outcome that applies. Available outcomes: active, inactive

>>> class("CCCC1=Nc2cc(C(=O)NCCN3CCCC3)ccc2Sc2ccccc21")
"inactive"
>>> class("COc1ccccc1NC(=O)CCN1CCN(c2ccc(Cl)cc2)CC1")
"inactive"
>>> class("COc1ccc(N2C(=O)CNC2=S)cc1")
"inactive"
>>> class("COc1ccc(-c2nc(SCC(=O)N3CCCC3)n[nH]2)cc1")
"inactive"

Inquiry: // param item: COc1cccc2sc(NNC(=O)c3nc4ccccc4s3)nc12 ; yields the recorded call
Reply text: active

Inquiry: What classification did CC1=C(C(=O)NC2CC(C)(C)Cc3c2cnn3-c2ccc(C)cc2)OCCO1 (stereo unspecified) end up with in this test?
Reply text: inactive

Inquiry: Call for entry COc1ccc(NC(=O)c2cccc3c2C(=O)N(CC2CCCO2)C3)cc1OC (stereo unspecified) :
Reply text: inactive

Inquiry: For this compound, state the assay outcome: CCOC(=O)c1c(-c2ccc(C)cc2)csc1/N=C(\C)C1=C(O)c2ccccc2C1=O
Reply text: inactive

Inquiry: Fill in: this test's call for COc1ccc(N2C(=O)CC(Sc3n[nH]c(-c4ccc(C)cc4)n3)C2=O)cc1 (stereo unspecified) is ___
Reply text: active

Inquiry: Would you mind telling me which call this test gave COc1ccc(/C=C(/CC(=O)Nc2ccc(C)cc2)c2nc3ccccc3s2)cc1 ?
Reply text: inactive

Inquiry: Which outcome was entered for the compound Cc1cc(NC(=O)c2ccco2)c(=O)n(Cc2c(F)cccc2Cl)c1 in this test?
Reply text: inactive
